Origin of values: patent US11549198B2

- Test: Drug release study of model drugs from corn zein fibers and films in phosphate buffer
- Type: physicochemical
- Protocol conditions: Film; 20 mM phosphate buffer (pH 7.0); up to 96 hours
Experimental endpoint: n value from the Korsmeyer-Peppas equation of model drug release profile

Check out these entries, answers already filled in.
Lab book: n value from the Korsmeyer-Peppas equation of model drug release profile of CN(C)c1ccc(C(=C2C=CC(=[N+](C)C)C=C2)c2ccc(N(C)C)cc2)cc1 [Crystal Violet, Crystal violet] noted as 0.1184

Lab book: n value from the Korsmeyer-Peppas equation of model drug release profile of CCN(CC)c1ccc2c(-c3ccccc3C(=O)O)c3ccc(=[N+](CC)CC)cc-3oc2c1.[Cl-] [Rhodamine B, rhodamine B] noted as 0.203

Lab book: n value from the Korsmeyer-Peppas equation of model drug release profile of CN(C)C(SCc1ccc2c(c1)-c1nc-2nc2[n-]c(nc3nc(nc4[n-]c(n1)c1ccc(CSC(N(C)C)=[N+](C)C)cc41)-c1ccc(CSC(N(C)C)=[N+](C)C)cc1-3)c1ccc(CSC(N(C)C)=[N+](C)C)cc21)=[N+](C)C.[Cl-].[Cl-].[Cl-].[Cl-].[Cu+2] [Alcian Blue, alcian blue 8GX] noted as 0.1507

A = O=C1/C(=C2\Nc3ccc(S(=O)(=O)[O-])cc3C2=O)Nc2ccc(S(=O)(=O)[O-])cc21.[Na+].[Na+] [Indigo Carmine, indigo carmine]
B = CO[C@H]1/C=C/O[C@@]2(C)Oc3c(C)c(O)c4c(O)c(c(/C=N/N5CCN(C)CC5)c(O)c4c3C2=O)NC(=O)/C(C)=C\C=C\[C@H](C)[C@H](O)[C@@H](C)[C@@H](O)[C@@H](C)[C@H](OC(C)=O)[C@@H]1C [Rifampin, rifampin]
Among A and B , whose measured n value from the Korsmeyer-Peppas equation of model drug release profile is the smaller figure? Provide the label of your selected option as the answer.
B
